Kindly state growth for each of the entries shown.
# System: E. coli TESEC Alr+ wild-type control
# Assay: growth (OD600 after 10 h); higher = more growth (less inhibition)
# Assay Setup: compound 0.1 mM; raw OD600 reference: median of DMSO wells 0.241, cell-free background 0.041
Where a name gives a salt, the structure may show the parent alone.
// no unit, no text: just the number

Reported growth for NCCCC(O)(P(=O)(O)O)P(=O)(O)O [Alendronate sodium] : what is it? 0.259

Next record, please: COc1cccc2c1C(=O)c1c(O)c3c(c(O)c1C2=O)C[C@@](O)(C(=O)CO)C[C@@H]3O[C@H]1C[C@H](N)[C@@H](O)[C@H](C)O1 [Epirubicin hydrochloride] 0.0443

Record: CCC1(c2ccccc2)C(=O)NCNC1=O [Primidone] 0.243

Try this compound next: CCOCCn1c(N2CCCN(C)CC2)nc2ccccc21 [Emedastine] 0.223

Here is the next compound: Cc1nc2ccccn2c(=O)c1CCN1CCC(C(=O)c2ccc(F)cc2)CC1 [Pirenperone] 0.208

Then this compound: CCSc1ccc2c(c1)N(CCCN1CCN(C)CC1)c1ccccc1S2 [Thiethylperazine dimalate] 0.0403

Ok, now N[C@@H]1CCCCN(c2c(F)cc3c(=O)c(C(=O)O)cn(C4CC4)c3c2Cl)C1 [Besifloxacin hydrochloride] 0.0415

Next up: C[C@]12CCC(=O)C=C1CC[C@@H]1[C@@H]2C(=O)C[C@@]2(C)[C@H]1CC[C@]2(O)C(=O)CO [Cortisone] 0.216

# iterate: CN1CCC(=C2c3ccccc3C=Cc3ccccc32)CC1 [Cyproheptadine hydrochloride] 0.145

Now this one: COc1nc(C)nc(Cl)c1NC1=NCCN1 [Moxonidine] 0.241

What do we get for CCOc1cc(CC(=O)N[C@@H](CC(C)C)c2ccccc2N2CCCCC2)ccc1C(=O)O [Repaglinide] ? 0.185

Consider next the compound CC#C[C@]1(O)CC[C@H]2[C@@H]3CCC4=CC(=O)CCC4=C3[C@@H](c3ccc(N(C)C)cc3)C[C@@]21C [Mifepristone] in the same way. 0.142

Nc1nnc(-c2cccc(Cl)c2Cl)c(N)n1 [Lamotrigine] ? 0.14

Quick one: CC(C)NC[C@@H](O)COc1cccc2ccccc12 [(R)-Propranolol hydrochloride] 0.205

// query: CC(=O)OCC(CCn1cnc2cnc(N)nc21)COC(C)=O [Famciclovir] 0.23

And for CCn1cc(C(=O)O)c(=O)c2cc(F)c(N3CCNCC3)nc21 [Enoxacin] ? 0.0456

Thanks! And CN1CCC[C@@H]1CCO[C@](C)(c1ccccc1)c1ccc(Cl)cc1 [Clemastine fumarate] ? 0.0447

* * *

# Test system: E. coli TESEC Mtb Alr
# Assay: growth (OD600 after 10 h); higher = more growth (less inhibition)
# Assay Setup: arabinose 1000 nM; compound 0.1 mM; raw OD600 reference: median of DMSO wells 0.294, cell-free background 0.041
Structures can show the parent of a compound that is named as a salt.
Exercise: for every item that follows, state its recorded growth.

What does the record list as growth for `CC(=O)O[C@@]12CO[C@@H]1C[C@H](O)[C@@]1(C)C(=O)[C@H](O)C3=C(C)[C@@H](OC(=O)[C@H](O)[C@@H](NC(=O)OC(C)(C)C)c4ccccc4)C[C@@](O)([C@@H](OC(=O)c4ccccc4)[C@H]21)C3(C)C` ? 0.34

Next: N=C(N)NC(=O)c1nc(Cl)c(N)nc1N [Amiloride hydrochloride dihydrate] 0.291

Also need Cc1ncc(C[n+]2csc(CCO)c2C)c(N)n1 [Thiamine hydrochloride] , thanks. 0.295

Check `CC[C@H](C)[C@H](N)C1=N[C@H](C(=O)N[C@@H](CC(C)C)C(=O)N[C@H](CCC(=O)O)C(=O)N[C@H](C(=O)N[C@H]2CCCCNC(=O)[C@H](CC(N)=O)NC(=O)[C@@H](CC(=O)O)NC(=O)[C@H](Cc3cnc[nH]3)NC(=O)[C@@H](Cc3ccccc3)NC(=O)[C@H]([C@@H](C)CC)NC(=O)[C@@H](CCCN)NC2=O)[C@@H](C)CC)CS1` too. 0.324

Also need O=C1CN(/N=C/c2ccc(-c3ccc([N+](=O)[O-])cc3)o2)C(=O)N1 [Dantrolene sodium salt] , thanks. 0.263
